Could you please report measured Anti 5-HT action (% of Control) 10^−7 M for the items listed next?
System: serotonin-2 receptor
Assay: Anti-serotonin action (anti-5-HT action): contraction of isolated superior mesenteric artery induced by serotonin
Conditions: test drug 10^−7 M; contraction induced by 10^−5 M serotonin (5-HT) taken as 100%; Hartley male guinea pig superior mesenteric artery

Sample records with Anti 5-HT action (% of Control) 10^−7 M:
compound="O=S1(=O)c2ccccc2C(O)CN1CCCN1CCN(c2ccc(F)cc2)CC1 (centres unmarked)" measured_result="45.7 % of Control"
compound=O=S1(=O)c2ccccc2C2(CN1CCCN1CCN(c3ccccn3)CC1)OCCO2 measured_result="39.8 % of Control"
compound=O=S1(=O)c2cccc(Cl)c2C2(CN1CCCN1CCN(c3ccc(O)cc3)CC1)OCCO2 measured_result="23.5 % of Control"
compound=O=S1(=O)c2ccccc2C2(CN1CCCN1CCN(c3ccc(O)cc3)CC1)OCCO2 measured_result="15.7 % of Control"
compound=O=S1(=O)c2ccc(Cl)cc2C2(CN1CCCN1CCN(c3ccc(F)cc3)CC1)OCCO2 measured_result="48.0 % of Control"
compound=O=S1(=O)c2ccccc2C2(CN1CCCN1CCN(c3ccc(F)cc3)CC1)OCCCO2 measured_result="24.8 % of Control"
compound=COc1ccc2c(c1)C1(CN(CCCN3CCN(c4ccc(F)cc4)CC3)S2(=O)=O)OCCO1 measured_result="63.0 % of Control"
compound=COC1(OC)CN(CCCN2CCN(c3ccc(F)cc3)CC2)S(=O)(=O)c2ccccc21 measured_result="23.4 % of Control"
compound=COc1cccc2c1C1(CN(CCCN3CCN(c4ccc(O)cc4)CC3)S2(=O)=O)OCCO1 measured_result="10.9 % of Control"
compound=COc1cccc2c1C1(CN(CCCN3CCN(c4ccc(F)cc4)CC3)S2(=O)=O)SCCS1 measured_result="49.3 % of Control"

Give measured Anti 5-HT action (% of Control) 10^−7 M for every item shown.
1. COc1ccc2c(c1)S(=O)(=O)N(CCCN1CCC(C(=O)c3ccc(F)cc3)CC1)CC21OCCO1
2. COc1cccc2c1C1(CN(CCN3CCN(c4ccc(F)cc4)CC3)S2(=O)=O)OCCO1
3. COC1=CN(CCCN2CCN(c3ccc(F)cc3)CC2)S(=O)(=O)c2ccccc21
4. O=C(c1ccc(F)cc1)C1CCN(CCCN2CC3(OCCO3)c3ccccc3S2(=O)=O)CC1

Reply:
1. 51.6 % of Control
2. 10.5 % of Control
3. 60.8 % of Control
4. 37.4 % of Control

###

Could you please report measured Anti 5-HT action (% of Control) 10^−6 M for the items listed next?
Tested on: serotonin-2 receptor
Assay: Anti-serotonin action (anti-5-HT action): contraction of isolated superior mesenteric artery induced by serotonin
Conditions: test drug 10^−6 M; contraction induced by 10^−5 M serotonin (5-HT) taken as 100%; Hartley male guinea pig superior mesenteric artery

Give measured Anti 5-HT action (% of Control) 10^−6 M for every item shown.
1. O=S1(=O)c2ccc(Cl)cc2C2(CN1CCCN1CCN(c3ccc(F)cc3)CC1)OCCO2
2. COc1ccc2c(c1)S(=O)(=O)N(CCCN1CCC(C(=O)c3ccc(F)cc3)CC1)CC21OCCO1
3. O=S1(=O)c2ccccc2C(O)CN1CCCN1CCN(c2ccc(F)cc2)CC1 (stereo not drawn)
4. COC1CN(CCCN2CCN(c3ccc(F)cc3)CC2)S(=O)(=O)c2ccccc21 (stereo not drawn)
5. O=S1(=O)c2ccccc2C2(CN1CCCN1CCN(c3ccc(F)cc3)CC1)OCCCO2

Reply:
1. 23.6 % of Control
2. 20.3 % of Control
3. 18.2 % of Control
4. 10.0 % of Control
5. 13.8 % of Control

Give measured Anti 5-HT action (% of Control) 10^−6 M for every item shown.
1. O=S1(=O)c2ccccc2C2(CN1CCCN1CCN(c3ccccc3F)CC1)OCCO2
2. COC1(OC)CN(CCCN2CCN(c3ccc(F)cc3)CC2)S(=O)(=O)c2ccccc21
3. O=C(c1ccc(F)cc1)C1CCN(CCCN2CC(O)c3ccccc3S2(=O)=O)CC1 (stereo not drawn)
4. O=C(c1ccc(F)cc1)C1CCN(CCCN2CC3(OCCO3)c3ccccc3S2(=O)=O)CC1

Reply:
1. 7.5 % of Control
2. 7.4 % of Control
3. 21.7 % of Control
4. 13.4 % of Control

Give measured Anti 5-HT action (% of Control) 10^−6 M for every item shown.
1. O=S1(=O)c2ccccc2C2(CN1CCCN1CCN(c3ccc(F)cc3)CC1)SCCS2
2. O=S1(=O)c2ccccc2C2(CN1CCCN1CCN(c3ccc(O)cc3)CC1)OCCO2
3. COc1ccc2c(c1)C1(CN(CCCN3CCC(C(=O)c4ccc(F)cc4)CC3)S2(=O)=O)OCCO1

Reply:
2.8 % of Control
8.3 % of Control
13.9 % of Control

The measured values listed here are drawn from patent US6664251B2.
